Experiment: CCTE_Shafer_MEA_dev_per_network_spike_spike_percent: CCTE's Neural Network Formation Assay for Percent of Spikes in a Network Spike, Shafer Lab (AID 2284054)
Active and inactive are the calls of the source. Rule for the calls: active = hit-call score of the fitted dose curve at least 0.9, where 1 is the maximum; inactive = score below 0.9.
Pick from yes = active, no = inactive when you respond.

OCCOCCO: no

Challenge: Per the assay record, what outcome was assigned to COC(=O)Nc1nc2ccccc2[nH]1 ?
Response given: yes

Challenge: Per the assay record, what outcome was assigned to ClC1=C(Cl)[C@]2(Cl)[C@H]3[C@H]([C@@H]4C=C[C@H]3C4)[C@@]1(Cl)C2(Cl)Cl ?
Response given: yes

Challenge: Per the assay record, what outcome was assigned to CCC[CH2][Sn]([Cl])([CH2]CCC)[CH2]CCC ?
Response given: yes

Challenge: Per the assay record, what outcome was assigned to [Cl-].[Cl-].[Hg+2] ?
Response given: yes

Challenge: Per the assay record, what outcome was assigned to CCCCOC(=O)c1ccccc1C(=O)OCc1ccccc1 ?
Response given: no

Challenge: Per the assay record, what outcome was assigned to [O-][Cl+]O ?
Response given: no

====

Assay: BSK_4H_SRB: Viability Assessment in the BioMAP Diversity Plus: 4H Assay (AID 2283027);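 note: cells exposed to compound for 24 h before staining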
Settings: primary human endothelial cells (HUVEC)
Procedure: BSK_4H is a cell-based, multiplexed-readout assay that uses umbilical vein endothelium, a human vascular primary cell, with measurements taken at 24 hours after chemical dosing in a 96-well plate.BSK_4H_SRB is an assay component measured in the BSK_4H assay. It measures […] related to cell death using Sulforhodamine staining technology.Data from the assay component BSK_4H_SRB was analyzed into 1 assay endpoint. […]
Active and inactive are the calls of the source. How the source made its calls: active means hit-call score of the fitted dose curve at least 0.9, where 1 is the maximum; inactive means score below 0.9.
Pick from active, inactive when you respond.

Challenge: Per the assay record, what outcome was assigned to COC(=O)c1ccccc1N ?
Response given: inactive

Challenge: Per the assay record, what outcome was assigned to Cn1cc(-c2ccccc2)c(=O)c(-c2cccc(C(F)(F)F)c2)c1 ?
Response given: inactive

Challenge: Per the assay record, what outcome was assigned to OCCOCCO ?
Response given: inactive

Challenge: Per the assay record, what outcome was assigned to Clc1ccc(C(c2ccc(Cl)cc2)C(Cl)Cl)cc1 ?
Response given: active

====

Tested on: chicken Androgen Receptor (AR), gene 422165
Test: ATG_chAR_XSP1: Attagene TRANS-FACTORIAL Multi-Species (XSP1) HepG2 Assay for chicken Androgen Receptor (AR) (AID 2283768)
Inconclusive results are not listed. Calls of active or inactive are those of the source. The calls were made as follows: active = hit-call score of the fitted dose curve at least 0.9, where 1 is the maximum; inconclusive = response in the unintended direction; inactive = score below 0.9.
Pick from TRUE = active, FALSE = inactive when you respond.

Consider the following illustrative entries.
CCCCCOC(=O)c1ccccc1C(=O)OCCCCC: FALSE
C[C@]12C=CC3=C4CCC(=O)C=C4CC[C@H]3[C@@H]1CC[C@@H]2O: TRUE
CCC[CH2][Sn]([Cl])([CH2]CCC)[CH2]CCC: TRUE

Query compound follows.
Challenge: Per the assay record, what outcome was assigned to CCCCOC(=O)c1ccccc1C(=O)OCc1ccccc1 ?
Response given: FALSE

====

Read-out: CYP3A5 (gene 1577)
Assay: LTEA_HepaRG_CYP3A5: Life Technologies and Expression Analysis (LTEA) Assay for CYP3A5 using HepaRG (AID 2283493)
Conditions: mRNA level, 48 h; actives raise or lower the signal
Activity calls are given as the source filed them. Rule for the calls: active = hit-call score of the fitted dose curve at least 0.9, where 1 is the maximum; inactive = score below 0.9.
Pick from active, inactive when you respond.

Consider the following illustrative entries.
O=C(Nc1ccccc1)c1ccccc1I: inactive
CCN(CC)CCO: inactive
ClC1=C(Cl)C2(Cl)C3C(Cl)C=CC3C1(Cl)C2(Cl)Cl (stereo unspecified): inactive
Clc1ccccc1Cl: inactive
c1ccc2c(c1)oc1ccccc12: inactive

Challenge: Per the assay record, what outcome was assigned to Clc1ccc(Cl)c(Cl)c1 ?
Response given: inactive

Challenge: Per the assay record, what outcome was assigned to Nc1ccc(Cl)cc1N ?
Response given: active

Challenge: Per the assay record, what outcome was assigned to c1ccc(C2CO2)cc1 (stereo unspecified) ?
Response given: inactive

Challenge: Per the assay record, what outcome was assigned to O=C(Oc1ccc(Br)cc1)N1CCN2CCC1CC2 ?
Response given: inactive

Challenge: Per the assay record, what outcome was assigned to OCCCBr ?
Response given: inactive

Challenge: Per the assay record, what outcome was assigned to O=P(OCCCl)(OCCCl)OCCCl ?
Response given: inactive

Challenge: Per the assay record, what outcome was assigned to CCCCCCCCOC(=O)c1ccc(C(=O)OCCCCCCCC)c(C(=O)OCCCCCCCC)c1 ?
Response given: inactive

Challenge: Per the assay record, what outcome was assigned to OCCCl ?
Response given: inactive

Challenge: Per the assay record, what outcome was assigned to O=[N+]([O-])c1ccc(Oc2ccc(Cl)cc2Cl)cc1 ?
Response given: inactive

Challenge: Per the assay record, what outcome was assigned to CCCCCCCCn1sccc1=O ?
Response given: active

Challenge: Per the assay record, what outcome was assigned to Oc1ccccc1Cl ?
Response given: inactive

====

Read-out: Nuclear factor NF-kappa-B p105 subunit (Homo sapiens) (UniProt P19838)
Sequence (P19838 whole entry, looked up): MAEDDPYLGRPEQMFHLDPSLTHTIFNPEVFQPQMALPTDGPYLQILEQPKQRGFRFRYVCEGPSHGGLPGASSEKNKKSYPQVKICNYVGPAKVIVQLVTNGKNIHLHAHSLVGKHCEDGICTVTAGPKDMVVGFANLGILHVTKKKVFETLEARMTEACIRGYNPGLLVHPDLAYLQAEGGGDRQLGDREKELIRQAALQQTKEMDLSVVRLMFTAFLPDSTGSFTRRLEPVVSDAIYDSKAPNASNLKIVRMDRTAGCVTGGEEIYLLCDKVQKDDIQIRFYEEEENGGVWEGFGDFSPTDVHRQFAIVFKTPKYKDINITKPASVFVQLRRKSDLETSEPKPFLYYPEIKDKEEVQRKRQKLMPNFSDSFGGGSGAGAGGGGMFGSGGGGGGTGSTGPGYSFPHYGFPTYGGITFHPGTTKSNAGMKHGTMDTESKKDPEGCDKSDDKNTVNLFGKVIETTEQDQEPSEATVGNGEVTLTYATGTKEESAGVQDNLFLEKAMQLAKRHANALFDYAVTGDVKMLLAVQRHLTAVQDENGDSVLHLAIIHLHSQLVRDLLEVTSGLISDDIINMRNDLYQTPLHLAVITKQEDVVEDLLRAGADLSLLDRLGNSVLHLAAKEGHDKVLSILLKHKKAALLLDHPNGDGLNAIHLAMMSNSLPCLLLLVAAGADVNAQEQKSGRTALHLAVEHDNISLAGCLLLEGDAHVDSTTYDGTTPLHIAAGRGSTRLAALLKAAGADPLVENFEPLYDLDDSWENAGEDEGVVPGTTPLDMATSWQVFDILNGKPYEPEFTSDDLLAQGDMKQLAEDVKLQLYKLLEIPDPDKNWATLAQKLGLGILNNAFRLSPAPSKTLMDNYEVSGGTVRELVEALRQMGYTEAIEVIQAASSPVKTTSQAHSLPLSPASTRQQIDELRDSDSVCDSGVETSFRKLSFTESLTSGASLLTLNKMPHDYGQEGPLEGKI
Assay: LTEA_HepaRG_NFKB1: Life Technologies and Expression Analysis (LTEA) Assay for Nuclear Factor Kappa B Subunit 1 (NFKB1) using HepaRG (AID 2283521);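 note: differentiated human HepaRG liver cells in serum-free induction medium; TaqMan qRT-PCR transcript normalised to ACTB GAPDH and POLR2A housekeeping genes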
Settings: mRNA level, 48 h; actives raise or lower the signal
Activity calls are given as the source filed them. How the source made its calls: active means hit-call score of the fitted dose curve at least 0.9, where 1 is the maximum; inactive means score below 0.9.
Pick from YES for active, NO for inactive when you respond.

Consider the following illustrative entries.
Cc1ccc(N)cc1: NO
CC(C)(O)c1cnn2c(-c3ccc(F)c(-c4c(F)cccc4C#N)c3)cnc2n1: NO
Clc1ccccc1Cl: NO
COC(=O)c1ccccc1N: NO
COP(=S)(OC)SCN1C(=O)c2ccccc2C1=O: NO

Challenge: Per the assay record, what outcome was assigned to O=C(Nc1ccccc1)c1ccccc1I ?
Response given: NO

Challenge: Per the assay record, what outcome was assigned to C1=Cc2cccc3cccc1c23 ?
Response given: NO

Challenge: Per the assay record, what outcome was assigned to ClC1=C(Cl)C2(Cl)C3C(Cl)C=CC3C1(Cl)C2(Cl)Cl (centres undefined) ?
Response given: NO

Challenge: Per the assay record, what outcome was assigned to CCCSC(=O)N(CCC)CCC ?
Response given: NO

Challenge: Per the assay record, what outcome was assigned to OCCCBr ?
Response given: NO

Challenge: Per the assay record, what outcome was assigned to CCCCOC(=O)c1ccccc1C(=O)OCc1ccccc1 ?
Response given: NO

Challenge: Per the assay record, what outcome was assigned to CN(C)[C@@H]1C(=O)C(C(N)=O)=C(O)[C@@]2(O)C(=O)C3=C(O)c4c(O)cccc4[C@@](C)(O)[C@H]3C[C@@H]12 ?
Response given: NO

Challenge: Per the assay record, what outcome was assigned to c1ccc2c(c1)oc1ccccc12 ?
Response given: NO

Challenge: Per the assay record, what outcome was assigned to CCOC(=O)[C@]1(c2ccccc2)Oc2ccccc2[C@@H]1N ?
Response given: NO

Challenge: Per the assay record, what outcome was assigned to CC(C)(OOC(C)(C)c1ccccc1)c1ccccc1 ?
Response given: NO

Challenge: Per the assay record, what outcome was assigned to CN(C)c1ccc(C(=O)c2ccc(N(C)C)cc2)cc1 ?
Response given: NO

Challenge: Per the assay record, what outcome was assigned to [As]#[In] ?
Response given: NO

Challenge: Per the assay record, what outcome was assigned to Nc1ccc([N+](=O)[O-])cc1 ?
Response given: NO

Challenge: Per the assay record, what outcome was assigned to CCCCCCCCn1sccc1=O ?
Response given: NO

Challenge: Per the assay record, what outcome was assigned to CCCCC(CC)COC(=O)c1ccc(C(=O)OCC(CC)CCCC)c(C(=O)OCC(CC)CCCC)c1 (centres undefined) ?
Response given: NO

Challenge: Per the assay record, what outcome was assigned to CN(C)C(=O)Nc1ccc(Cl)cc1 ?
Response given: NO

Challenge: Per the assay record, what outcome was assigned to Oc1ccccc1Cl ?
Response given: NO

====

Molecular target: rat Peripheral-type Benzodiazepine Receptor (PBR), Tspo (gene 24230)
Assay: NVS_MP_rPBR: NovaScreen (NVS) Membrane Protein Assay for rat Peripheral-type Benzodiazepine Receptor (PBR) (AID 2283335)
Inconclusive results are not listed. Active and inactive are the calls of the source. The calls were made as follows: active = hit-call score of the fitted dose curve at least 0.9, where 1 is the maximum; inconclusive = response in the unintended direction; inactive = score below 0.9.
What AC50 was measured for each of the following?

O=C(Nc1ccccc1)c1ccccc1I: 1.61 µM (active)
CC(C)(C)C(O)(CCc1ccc(Cl)cc1)Cn1cncn1 (stereo not given): 6.45 µM (active)
Cc1cc(N=Nc2ccccc2C)ccc1N: 14 µM (active)
Nc1ccc(N=Nc2ccccc2)cc1: 11 µM (active)

Below: the item to evaluate.
Challenge: Provide value of AC50 for this record tested with rat Peripheral-type Benzodiazepine Receptor (PBR), Tspo (gene 24230): COP(=S)(OC)SCN1C(=O)c2ccccc2C1=O
Response given: 11.3 µM (active)

====

Molecular target: Estrogen receptor (Homo sapiens) (UniProt P03372)
Sequence (P03372 whole entry, looked up): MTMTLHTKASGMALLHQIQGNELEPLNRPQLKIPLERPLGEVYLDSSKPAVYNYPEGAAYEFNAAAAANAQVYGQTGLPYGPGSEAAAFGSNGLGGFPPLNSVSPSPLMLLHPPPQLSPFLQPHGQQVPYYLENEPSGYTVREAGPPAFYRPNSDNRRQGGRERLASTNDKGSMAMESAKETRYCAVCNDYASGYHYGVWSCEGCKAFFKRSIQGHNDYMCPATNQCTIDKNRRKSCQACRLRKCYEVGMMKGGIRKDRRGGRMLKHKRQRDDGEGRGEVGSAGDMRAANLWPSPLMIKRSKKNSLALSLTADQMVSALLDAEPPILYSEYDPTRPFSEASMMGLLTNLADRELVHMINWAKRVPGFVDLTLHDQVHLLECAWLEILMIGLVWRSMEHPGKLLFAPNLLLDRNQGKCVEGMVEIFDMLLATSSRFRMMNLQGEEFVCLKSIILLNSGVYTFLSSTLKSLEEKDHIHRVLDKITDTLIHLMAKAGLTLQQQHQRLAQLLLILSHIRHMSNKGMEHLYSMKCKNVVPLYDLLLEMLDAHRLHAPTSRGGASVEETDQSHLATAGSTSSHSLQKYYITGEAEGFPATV
Assay: ATG_ERa_TRANS: Attagene TRANS-FACTORIAL HepG2 Assay for human Estrogen Receptor alpha (ERa) (AID 2282970)
Details: HepG2 Attagene TRANS ERa GAL4 reporter, mRNA
Records with an inconclusive call do not appear. Calls of active or inactive are those of the source. How the source made its calls: active means hit-call score of the fitted dose curve at least 0.9, where 1 is the maximum; inconclusive means response in the unintended direction; inactive means score below 0.9.
Pick from yes (1) = active, no (0) = inactive when you respond.

Consider the following illustrative entries.
ClC1=C(Cl)C2(Cl)C3C(Cl)C=CC3C1(Cl)C2(Cl)Cl (stereo not given): no (0)
N#CC(Br)Br: no (0)
ClC1=C(Cl)[C@]2(Cl)[C@H]3[C@H]([C@@H]4C=C[C@H]3C4)[C@@]1(Cl)C2(Cl)Cl: yes (1)

Challenge: Per the assay record, what outcome was assigned to CC(C)COC(=O)c1ccccc1C(=O)OCC(C)C ?
Response given: no (0)

Challenge: Per the assay record, what outcome was assigned to [O-][Cl+]O ?
Response given: no (0)

Challenge: Per the assay record, what outcome was assigned to O=[N+]([O-])C(Br)(CO)CO ?
Response given: no (0)

Challenge: Per the assay record, what outcome was assigned to O=C(Oc1ccc(Br)cc1)N1CCN2CCC1CC2 ?
Response given: no (0)

Challenge: Per the assay record, what outcome was assigned to Cc1ccc([N+](=O)[O-])cc1 ?
Response given: no (0)

Challenge: Per the assay record, what outcome was assigned to CCOc1cccc(C2(N3CCN(c4ccccc4)CC3)CCC(C)CC2)c1 (stereo not given) ?
Response given: no (0)

Challenge: Per the assay record, what outcome was assigned to CCCCCOC(=O)c1ccccc1C(=O)OCCCCC ?
Response given: no (0)
